The reported measurements were obtained from patent US20180037631A1.

- Assayed target: EGFR on the surface of human tumour cells (A431, H292) (human, UniProt P00533 25-1210)
- Procedure text: cell-based or functional assay
Value kind: pERK IC50 (nM)
Form entry: value (nM) — number only.

For orientation, consider the following solved cases.
# Binder, Quantity unit, pERK IC50
rows = [
    ("I1(S62C)-GS10-E5 pegylated (designed binder, PEG on Cys at position 62 of I1 (position of SEQ ID NO: 1), also called I1(S62C)-GS10-E5(5)) MGVSDVPRDLEVVAATPTSLLISWSARLKVARYYRITYGETGGNSPVQEFTVPKNVYTATICGLKPGVDYTITVYAVTRFRDYQPISINYRTEIEKGSGSGSGSGSGSGSGSGSGSVSDVPRDLEVVAATPTSLLISWWAPVDRYQYYRITYGETGGNSPVQEFTVPRDVYTATISGLKPGVDYTITVYAVTDYKPHADGPHTYHESPISINYRTEHHHHHH", "nM", 10),
    ("I1-GS10-E5(S91C) pegylated (designed binder, PEG on Cys at position 91 of E5 (position of SEQ ID NO: 1), also called I1-GS10-E5(S91C)(8)) MGVSDVPRDLEVVAATPTSLLISWSARLKVARYYRITYGETGGNSPVQEFTVPKNVYTATISGLKPGVDYTITVYAVTRFRDYQPISINYRTEIEKGSGSGSGSGSGSGSGSGSGSVSDVPRDLEVVAATPTSLLISWWAPVDRYQYYRITYGETGGNSPVQEFTVPRDVYTATISGLKPGVDYTITVYAVTDYKPHADGPHTYHESPICINYRTEHHHHHH", "nM", 29),
    ("I1-GSGCGS8-E5 pegylated (designed binder, PEG on the Cys of the GSGCGS8 linker, alternative clone of I1-GS10-E5 pegylated; tail of first monomer EIEK (D to E); also called I1-GSGCGS8-E5(3)) MGVSDVPRDLEVVAATPTSLLISWSARLKVARYYRITYGETGGNSPVQEFTVPKNVYTATISGLKPGVDYTITVYAVTRFRDYQPISINYRTEIEKGSGCGSGSGSGSGSGSGSGSVSDVPRDLEVVAATPTSLLISWWAPVDRYQYYRITYGETGGNSPVQEFTVPRDVYTATISGLKPGVDYTITVYAVTDYKPHADGPHTYHESPISINYRTEHHHHHH", "nM", 8),
    ("I1-GS10-E5(S62C) pegylated (designed binder, PEG on Cys at position 62 of E5 (position of SEQ ID NO: 1), also called I1-GS10-E5(S62C)(6)) MGVSDVPRDLEVVAATPTSLLISWSARLKVARYYRITYGETGGNSPVQEFTVPKNVYTATISGLKPGVDYTITVYAVTRFRDYQPISINYRTEIEKGSGSGSGSGSGSGSGSGSGSVSDVPRDLEVVAATPTSLLISWWAPVDRYQYYRITYGETGGNSPVQEFTVPRDVYTATICGLKPGVDYTITVYAVTDYKPHADGPHTYHESPISINYRTEHHHHHH", "nM", 30),
    ("I1(S91C)-GS10-E5 pegylated (designed binder, PEG on Cys at position 91 of I1 (position of SEQ ID NO: 1), also called I1(S91C)-GS10-E5(7)) MGVSDVPRDLEVVAATPTSLLISWSARLKVARYYRITYGETGGNSPVQEFTVPKNVYTATISGLKPGVDYTITVYAVTRFRDYQPICINYRTEIEKGSGSGSGSGSGSGSGSGSGSVSDVPRDLEVVAATPTSLLISWWAPVDRYQYYRITYGETGGNSPVQEFTVPRDVYTATISGLKPGVDYTITVYAVTDYKPHADGPHTYHESPISINYRTEHHHHHH", "nM", 15),
]

Query: Quick check: pERK IC50 of I1-GS10-E5-GSGC pegylated (designed binder, PEG on the Cys of the GSGC tail of E5, alternative clone of I1-GS10-E5 pegylated; also called I1-GS10-E5-GSGC(4)) MGVSDVPRDLEVVAATPTSLLISWSARLKVARYYRITYGETGGNSPVQEFTVPKNVYTATISGLKPGVDYTITVYAVTRFRDYQPISINYRTEIEKGSGSGSGSGSGSGSGSGSGSVSDVPRDLEVVAATPTSLLISWWAPVDRYQYYRITYGETGGNSPVQEFTVPRDVYTATISGLKPGVDYTITVYAVTDYKPHADGPHTYHESPISINYRTEGSGCHHHHHH ?
Result: 19

Query: Value lookup for pERK IC50; key = I1-GS10-E5 pegylated without the 6HIS tag (designed binder, PEG on the Cys of the C-terminal Cys tail, Whether the D-to-E change in the tail of the first monomer applies to this construct is not clear; also called I1-GS10-E5 pegylated(1)) MGVSDVPRDLEVVAATPTSLLISWSARLKVARYYRITYGETGGNSPVQEFTVPKNVYTATISGLKPGVDYTITVYAVTRFRDYQPISINYRTEIDKGSGSGSGSGSGSGSGSGSGSVSDVPRDLEVVAATPTSLLISWWAPVDRYQYYRITYGETGGNSPVQEFTVPRDVYTATISGLKPGVDYTITVYAVTDYKPHADGPHTYHESPISINYRTEIDKPCQ
Result: 11
